Molecular target: UGT1A9 in human kidney microsomes (Homo sapiens, UniProt O60656)
Experiment: Inhibition of propofol glucuronidation
Details: IC50, probe substrate propofol; HKM
Measured IC50 by item

| molecule | IC50 [µM] |
| --- | --- |
| C=C(C)[C@@H]1CCC(C)=C[C@H]1c1c(O)cc(CCCCC)cc1O [CBD, cannabidiol] | 5.5 |
| CCCCCc1cc(O)c2c(c1)OC(C)(C)c1ccc(C)cc1-2 [CBN, cannabinol] | 7.5 |

---

Measured IC50 by item
Biological target: UGT1A9 (Homo sapiens, UniProt O60656)
Sequence (O60656 26-530): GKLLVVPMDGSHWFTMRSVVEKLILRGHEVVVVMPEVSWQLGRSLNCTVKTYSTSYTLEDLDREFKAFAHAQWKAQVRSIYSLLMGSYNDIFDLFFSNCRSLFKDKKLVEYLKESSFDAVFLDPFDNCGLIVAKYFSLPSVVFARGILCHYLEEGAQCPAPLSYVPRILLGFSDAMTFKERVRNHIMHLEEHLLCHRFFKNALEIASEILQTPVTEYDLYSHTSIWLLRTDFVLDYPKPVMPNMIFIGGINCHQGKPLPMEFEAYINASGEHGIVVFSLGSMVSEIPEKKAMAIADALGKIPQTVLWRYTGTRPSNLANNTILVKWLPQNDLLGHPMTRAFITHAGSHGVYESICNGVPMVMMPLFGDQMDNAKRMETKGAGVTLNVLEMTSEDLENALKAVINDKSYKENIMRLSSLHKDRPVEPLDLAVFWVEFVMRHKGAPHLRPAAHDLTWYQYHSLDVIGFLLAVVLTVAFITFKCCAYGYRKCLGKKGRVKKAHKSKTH
Assay: Inhibition of propofol glucuronidation in rUGT1A9 microsomes
Format: in vitro ADME
Details: IC50,u (binding-corrected IC50), probe substrate propofol
measured_parameter: IC50 (nM)

| molecule | unit_descriptor | measured |
| --- | --- | --- |
| C=C(C)[C@@H]1CCC(C)=C[C@H]1c1c(O)cc(CCCCC)cc1O [CBD, cannabidiol] | nM | 120 |
| CCCCCc1cc(O)c2c(c1)OC(C)(C)c1ccc(C)cc1-2 [CBN, cannabinol] | nM | 510 |

---

Measured pIC50 by item
Molecular target: UniProtKB O60656
Test: in vitro
Settings: both, IC50,u (binding-corrected IC50), probe substrate acetaminophen, HLM
pIC50: −log10 of the molar value.

| structure_string | experimental_target | pIC50 |
| --- | --- | --- |
| CCCCCc1cc(O)c2c(c1)OC(C)(C)c1ccc(C)cc1-2 | UniProtKB O60656 | 5.51 |
| C=C(C)[C@@H]1CCC(C)=C[C@H]1c1c(O)cc(CCCCC)cc1O | UniProtKB O60656 | 6.19 |
